Test system: Escherichia coli
Assay: Antibacterial activity against KPC producing Escherichia coli ATCC BAA-2340 assessed as inhibition of bacterial growth incubated for 18 to 24 hrs by broth microdilution method
Assay type: functional
Settings: time 18-24 hrs

ITEM_SMILES: CCCCCCCCCC(=O)N[C@H](CCN)C(=O)N[C@H]1CCNC(=O)[C@H](CO)NC(=O)[C@H](CCN)NC(=O)[C@H](CCN)NC(=O)[C@H](Cc2ccccc2)NC(=O)[C@@H](CC(C)C)NC(=O)[C@H](CCN)NC1=O
OUTPUT_UNIT: mg/L
MIC: 16
//
ITEM_SMILES: CCCCCCCCCC(=O)N[C@H](CCN)C(=O)N[C@H]1CCNC(=O)[C@H](CC(C)C)NC(=O)[C@H](CCN)NC(=O)[C@H](CCN)NC(=O)[C@H](Cc2ccccc2)NC(=O)[C@@H](Cc2ccccc2)NC(=O)[C@H](CCN)NC1=O
OUTPUT_UNIT: mg/L
MIC: 2
